This collection of values is drawn from patent US20230197192A1.

# ASSAY METHOD TEXT: Visible dissolution of peptides in DMSO / 0.9% NaCl for pool formulation
# Type: physicochemical
# SETTINGS: Peptide Synthesis Engineering Run Batch for Sample GGGGG; visual appearance of the peptide solution (Clear / Semi Cloudy / Cloudy)
Where no end group is shown, it is not given here.
VALUE KIND: Visual solubility (appearance of the peptide solution)

{"SEQ TEXT": "FETTTGFDPHSGTPLSDHEAL [GGGGG.7]", "VALUE MEASURED": "Clear"}
{"SEQ TEXT": "MSYELKCAQELSQKQDG [GGGGG.31]", "VALUE MEASURED": "Clear"}
{"SEQ TEXT": "YSGIQESSSASPLSIKKCPI [GGGGG.29]", "VALUE MEASURED": "Clear"}
{"SEQ TEXT": "FQSLCQAPPLLKDKVLTALE [GGGGG.8]", "VALUE MEASURED": "Clear"}
{"SEQ TEXT": "VSPDIFMQSHL [GGGGG.40]", "VALUE MEASURED": "Clear"}

Problem: Name the reported Visual solubility (appearance of the peptide solution) value associated with the sequence AAIQEKKEI [GGGGG.39]
Result: Clear

Problem: Which measured Visual solubility (appearance of the peptide solution) value corresponds to RVGDLSPKQKEALAKPEA [GGGGG.27] ?
Result: Clear

Problem: Give the measured Visual solubility (appearance of the peptide solution) of SLCQAPPL [GGGGG.48] .
Result: Clear

Problem: Report Visual solubility (appearance of the peptide solution) for RVLIPDLQL [GGGGG.42] please.
Result: Clear

Problem: What Visual solubility (appearance of the peptide solution) value was documented for this sequence, LDRQHVQHQLLVILKELRK [GGGGG.34] ?
Result: Clear

Problem: Please give the measured Visual solubility (appearance of the peptide solution) for this sequence: RPGEDPSLHGIVKEQL [GGGGG.10]
Result: Clear

Problem: Returns the measured Visual solubility (appearance of the peptide solution) for the input sequence. Input: IQSIYGGLPKVPAKPKEPTIPH [GGGGG.23]
Result: Clear

Problem: Request the reported Visual solubility (appearance of the peptide solution) associated with STAPAEATLPKPGEAEAP [GGGGG.16]
Result: Clear

Problem: Please look up its Visual solubility (appearance of the peptide solution): APGSSRLA [GGGGG.43]
Result: Clear

Problem: Query: Visual solubility (appearance of the peptide solution); subject: HLINYQDDAELATHALPELTKLLNDEDPV [GGGGG.14]
Result: Clear
